Tested on: A549
test-summary: Cytotoxicity against human A549 cells expressing wild type p53 by MTT assay
Format: functional, cell-based
recorded-conditions: Homo sapiens, A549; read-out: IC50
readout-name: pIC50
In plain terms, pIC50 is the concentration in mol/L turned into minus its base-10 logarithm.

Query: Bench note: what pIC50 did COc1cc(OC)c2c(C)c(C=O)oc2c1Br show?
Response: 4.31

====

test-summary: Cytotoxicity against human NSCLC-N6 cells expressing mutant p53 by MTT assay
Assay type: functional, cell-based
recorded-conditions: Homo sapiens, NSCLC-N6; read-out: IC50
IC50 values for the compounds below.

Some solved cases for reference:
[[record]]
smiles_str = "COc1cc(OC)c2c(C)c(C(=O)Nc3ccccn3)oc2c1C(N)=O"
result = "> 84.4 µM"

[[record]]
smiles_str = "COc1cc(OC)c2c(C)c(C(=O)Nc3ccncc3)oc2c1C(N)=O"
result = "< 9.3 µM"

[[record]]
smiles_str = "Cc1c(C=O)oc2cc(OCc3ccccc3)cc(OCc3ccccc3)c12"
result = "> 80.6 µM"

[[record]]
smiles_str = "CCOC(=O)c1oc2c(Br)c(OC)cc(OC)c2c1C"
result = "> 87.4 µM"

[[record]]
smiles_str = "CCCNC(=O)c1oc2c(C(N)=O)c(OC)cc(OC)c2c1C"
result = "> 93.6 µM"

[[record]]
smiles_str = "COc1cc(OC)c2c(C)c(C(=O)NCc3ccccc3)oc2c1C(N)=O"
result = "> 81.4 µM"

[[record]]
smiles_str = "COc1cc(OC)c2c(C)c(C(N)=O)oc2c1C(N)=O"
result = "22.6 µM"

[[record]]
smiles_str = "CCOC(=O)c1oc2c(C(N)=O)c(O)cc(O)c2c1C"
result = "32.9 µM"


Query: Bench note: what IC50 did COc1cc(OC)c2c(C)c(C(=O)Nc3ccccc3)oc2c1C(N)=O show?
Response: < 9.3 µM

Query: Bench note: what IC50 did Cc1c(C=O)oc2c(C(N)=O)c(O)cc(O)c12 show?
Response: 60.8 µM

Query: Bench note: what IC50 did CCOC(=O)c1oc2cc(O)cc(O)c2c1C show?
Response: 65.6 µM

Query: Bench note: what IC50 did CCOC(=O)c1oc2cc(OCc3ccccc3)cc(OCc3ccccc3)c2c1C show?
Response: > 72 µM

Query: Bench note: what IC50 did CCOC(=O)c1oc2c(C(N)=O)c(OCc3ccccc3)cc(OCc3ccccc3)c2c1C show?
Response: < 7.2 µM

Query: Bench note: what IC50 did COc1cc(OC)c2c(C)c(C=O)oc2c1C(N)=O show?
Response: 44.4 µM

====

pIC50 values for the compounds below.
Test system: A549
test-summary: Cytotoxicity against human A549 cells expressing wild type p53 by MTT assay
Type: functional, cell-based
recorded-conditions: Homo sapiens, A549; read-out: IC50
In plain terms, pIC50 is the concentration in mol/L turned into minus its base-10 logarithm.

Some solved cases for reference:
[[record]]
smiles_str = "COc1cc(OC)c2c(C)c(C=O)oc2c1C(N)=O"
test_system = "A549"
quantitative_result = 4.20

[[record]]
smiles_str = "COc1cc(OC)c2c(C)c(C(=O)NCc3ccccc3)oc2c1C(N)=O"
test_system = "A549"
quantitative_result = 4.26

[[record]]
smiles_str = "COc1cc(OC)c2c(C)c(C(N)=O)oc2c1C(N)=O"
test_system = "A549"
quantitative_result = 4.40

[[record]]
smiles_str = "CCOC(=O)c1oc2cc(O)cc(O)c2c1C"
test_system = "A549"
quantitative_result = 4.16

[[record]]
smiles_str = "Cc1c(C=O)oc2c(C(N)=O)c(O)cc(O)c12"
test_system = "A549"
quantitative_result = 3.96


Now look at this entry.
Query: Bench note: what pIC50 did CCOC(=O)c1oc2c(C(N)=O)c(O)cc(O)c2c1C show?
Response: 4.62
